Sourced from patent US8026218B2

Examples of molecules with documented Emax follow.
- assayed system: rat μ opioid receptors (rMOR) (Rattus norvegicus, UniProt P33535)
- Construct: expressed in transfected cells; host or cells: HN9.10 neuroblastoma cell line, pCDNA3, neomycin-selected clones
- Sequence (P33535 whole entry): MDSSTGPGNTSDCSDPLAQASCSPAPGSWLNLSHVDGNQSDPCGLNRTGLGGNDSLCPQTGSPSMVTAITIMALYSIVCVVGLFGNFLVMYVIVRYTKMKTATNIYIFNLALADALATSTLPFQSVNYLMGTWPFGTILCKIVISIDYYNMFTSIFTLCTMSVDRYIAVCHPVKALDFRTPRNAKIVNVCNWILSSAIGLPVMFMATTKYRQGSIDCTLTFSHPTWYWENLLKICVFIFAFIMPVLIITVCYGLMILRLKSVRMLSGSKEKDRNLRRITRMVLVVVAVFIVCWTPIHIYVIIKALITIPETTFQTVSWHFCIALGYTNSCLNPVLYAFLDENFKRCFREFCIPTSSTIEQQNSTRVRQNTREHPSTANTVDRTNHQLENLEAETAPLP
- protocol notes: biochemical
- Type: biochemical
- assay conditions: Table 39; read-out: GTP binding rMOR Emax
Square brackets hold non-standard residues; d marks the D form. Peptide text beside a SMILES is read from it. * marks the point of attachment. NH(3,5-(CF3)2-benzyl) = FC(F)(F)c1cc(CN*)cc(C(F)(F)F)c1; X1 = OC[C@H]1OC(*)[C@H](O)[C@@H](O)[C@@H]1O; Dmt = Cc1cc(O)cc(C)c1C[C@H](N)C(=O)O; Nle = CCCC[C@H](N)C(=O)O
Unit % implied. Number only.

These recorded examples may help you get a feel for the data.
[[record]]
molecule = "CCCC[C@H](NC(=O)[C@H](Cc1ccccc1)NC(=O)CNC(=O)[C@@H](C)NC(=O)[C@@H](N)Cc1c(C)cc(O)cc1C)C(=O)N1CCC[C@H]1C(=O)N[C@@H](COC1O[C@H](CO)[C@@H](O)[C@H](O)[C@H]1O)C(=O)N[C@@H](Cc1c[nH]c2ccccc12)C(=O)NCc1cc(C(F)(F)F)cc(C(F)(F)F)c1 (stereo partly shown) [TY056] (H-[Dmt][dA]GF[Nle]PS(X1)W-{NH(3,5-(CF3)2-benzyl)}; N-terminus assumed)"
readout_units = "%"
value_observed = 66

[[record]]
molecule = "CSCC[C@H](NC(=O)[C@H](Cc1ccccc1)NC(=O)CNC(=O)[C@@H](C)NC(=O)[C@@H](N)Cc1c(C)cc(O)cc1C)C(=O)N1CCC[C@H]1C(=O)N[C@@H](CC(C)C)C(=O)N[C@@H](Cc1c[nH]c2ccccc12)C(=O)NCc1cc(C(F)(F)F)cc(C(F)(F)F)c1 [TY032]"
readout_units = "%"
value_observed = 74

[[record]]
molecule = "CC(C)C[C@H](NC(=O)[C@@H]1CCCN1C(=O)C(COC1OC(CO)C(O)C(O)C1O)NC(=O)[C@H](Cc1ccccc1)NC(=O)CNC(=O)[C@@H](C)NC(=O)[C@@H](N)Cc1ccc(O)cc1)C(=O)N[C@@H](Cc1c[nH]c2ccccc12)C(=O)NCc1cc(C(F)(F)F)cc(C(F)(F)F)c1 (stereo partly shown) [TY042]"
readout_units = "%"
value_observed = 28


Could you now consider this next molecule?
// sample CCCC[C@H](NC(=O)[C@H](Cc1ccccc1)NC(=O)CNC(=O)[C@@H](C)NC(=O)[C@@H](N)Cc1c(C)cc(O)cc1C)C(=O)N1CCC[C@H]1C(=O)N[C@@H](CC(C)C)C(=O)N[C@@H](Cc1c[nH]c2ccccc12)C(=O)NCc1cc(C(F)(F)F)cc(C(F)(F)F)c1 [TY050] , its Emax was 45

---

- assayed system: human δ opioid receptors (hDOR) (Homo sapiens, UniProt P41143)
- Construct: expressed in transfected cells; host or cells: HN9.10 neuroblastoma cell line, pCDNA3, neomycin-selected clones
- Sequence (P41143 whole entry): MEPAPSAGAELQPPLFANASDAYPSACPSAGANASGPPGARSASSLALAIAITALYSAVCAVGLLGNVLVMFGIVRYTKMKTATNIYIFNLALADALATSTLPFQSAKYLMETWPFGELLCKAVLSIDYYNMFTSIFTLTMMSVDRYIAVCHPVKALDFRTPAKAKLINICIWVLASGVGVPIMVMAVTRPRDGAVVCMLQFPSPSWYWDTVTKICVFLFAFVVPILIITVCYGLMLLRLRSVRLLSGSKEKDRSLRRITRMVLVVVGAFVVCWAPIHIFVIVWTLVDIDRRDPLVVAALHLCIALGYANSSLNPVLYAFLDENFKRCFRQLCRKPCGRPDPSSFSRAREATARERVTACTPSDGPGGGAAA
- protocol notes: [35S]GTP-γ-S binding assay, hDOR
- Assay type: biochemical
- assay conditions: read-out: EC50, hDOR, [35S]GTP-γ-S binding
metric name: pEC50
// pEC50 is dimensionless: -log10 of concentration (M)

// sample CCCC[C@H](NC(=O)[C@H](Cc1ccccc1)NC(=O)CNC(=O)[C@@H](C)NC(=O)[C@@H](N)Cc1ccc(O)cc1)C(=O)N1CCC[C@H]1C(=O)N[C@@H](CC(C)C)C(=O)N[C@@H](Cc1c[nH]c2ccccc12)C(=O)OCc1cc(C(F)(F)F)cc(C(F)(F)F)c1 [TY018] , its pEC50 was 8.40

// sample CCCC[C@@H](C(=O)N1CCC[C@H]1C(=O)N[C@@H](CC(C)C)C(=O)N[C@@H](Cc1c[nH]c2ccccc12)C(=O)OCc1cc(C(F)(F)F)cc(C(F)(F)F)c1)N(C)C(=O)[C@H](Cc1ccccc1)NC(=O)CNC(=O)[C@@H](C)NC(=O)[C@@H](N)Cc1ccc(O)cc1 [TY019] , its pEC50 was 6.44

// sample CC(C)C[C@H](NC(=O)[C@@H]1CCCN1C(=O)[C@H](Cc1ccccc1)NC(=O)[C@H](Cc1ccccc1)NC(=O)CNC(=O)[C@@H](C)NC(=O)[C@@H](N)Cc1ccc(O)cc1)C(=O)N[C@@H](Cc1c[nH]c2ccccc12)C(=O)OCc1cc(C(F)(F)F)cc(C(F)(F)F)c1 [TY003] , its pEC50 was 7.68

---

Examples of compounds with documented Emax follow.
- assayed system: human δ opioid receptors (hDOR) (Homo sapiens, UniProt P41143)
- Construct: expressed in transfected cells; host or cells: HN9.10 neuroblastoma cell line, pCDNA3, neomycin-selected clones
- protocol notes: [35S]GTP-γ-S binding assay, hDOR
- Assay type: biochemical
- assay conditions: net total bound/basal binding × 100; read-out: Emax, hDOR, [35S]GTP-γ-S binding
Unit % implied. Number only.

[[record]]
compound = "CC(C)C[C@H](NC(=O)[C@@H]1CCCN1C(=O)[C@H](CC[S+](C)[O-])NC(=O)[C@H](Cc1ccccc1)NC(=O)CNC(=O)[C@@H](C)NC(=O)[C@@H](N)Cc1ccc(O)cc1)C(=O)N[C@@H](Cc1c[nH]c2ccccc12)C(=O)OCc1cc(C(F)(F)F)cc(C(F)(F)F)c1 (stereo partly drawn)"
assayed_system = "human δ opioid receptors (hDOR) (Homo sapiens, UniProt P41143)"
metric_name = "Emax"
value_observed = 53


Value (Emax, human δ opioid receptors (hDOR) (Homo sapiens, UniProt P41143)) for record `CCCC[C@H](NC(=O)[C@H](Cc1ccccc1)NC(=O)CNC(=O)[C@@H](C)NC(=O)[C@@H](N)Cc1ccc(O)cc1)C(=O)N1CCC[C@H]1C(=O)N[C@@H](CC(C)C)C(=O)N[C@@H](Cc1c[nH]c2ccccc12)C(=O)OCc1cc(C(F)(F)F)cc(C(F)(F)F)c1` = 129

---

- assayed system: δ opioid receptors (MVD) (Mus musculus, UniProt P32300)
- Construct: from tissue; host or cells: mouse (ICR) isolated vas deferens
- Sequence (P32300 whole entry): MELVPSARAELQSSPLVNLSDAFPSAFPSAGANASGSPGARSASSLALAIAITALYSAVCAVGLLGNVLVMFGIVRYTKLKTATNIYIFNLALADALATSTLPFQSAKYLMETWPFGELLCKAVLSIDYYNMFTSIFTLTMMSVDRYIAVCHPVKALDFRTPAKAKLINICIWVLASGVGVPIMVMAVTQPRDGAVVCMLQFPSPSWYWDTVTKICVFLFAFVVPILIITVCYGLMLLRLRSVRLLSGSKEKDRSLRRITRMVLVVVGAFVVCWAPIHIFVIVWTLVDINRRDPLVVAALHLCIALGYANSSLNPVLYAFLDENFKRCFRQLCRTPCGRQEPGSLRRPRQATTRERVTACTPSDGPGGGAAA
- protocol notes: Mouse isolated vas deferens (MVD) assay, opioid agonist
- assay conditions: electrically stimulated isolated tissue; read-out: MVD (δ), IC50
metric name: IC50
Remember to put the unit after the number in your answer.

These recorded examples may help you get a feel for the data.
[[record]]
molecule = "CC(C)C[C@H](NC(=O)[C@@H]1CCCN1C(=O)[C@@H]1CSSC[C@@H](NC(=O)[C@@H](N)Cc2ccc(O)cc2)C(=O)NCC(=O)N[C@@H](Cc2ccccc2)C(=O)N1)C(=O)N[C@@H](Cc1c[nH]c2ccccc12)C(=O)NCc1cc(C(F)(F)F)cc(C(F)(F)F)c1 [TY039]"
value_observed = "73 nM"

[[record]]
molecule = "CC(C)C[C@H](NC(=O)[C@@H]1CCCN1C(=O)[C@@H](Cc1ccccc1)NC(=O)[C@H](Cc1ccccc1)NC(=O)CNC(=O)[C@@H](C)NC(=O)[C@@H](N)Cc1ccc(O)cc1)C(=O)N[C@@H](Cc1c[nH]c2ccccc12)C(=O)OCc1cc(C(F)(F)F)cc(C(F)(F)F)c1 [TY007]"
value_observed = "412 nM"

[[record]]
molecule = "CC(C)C[C@H](NC(=O)[C@@H]1CCCN1C(=O)[C@H]1CSSC[C@@H](NC(=O)[C@@H](N)Cc2ccc(O)cc2)C(=O)NCC(=O)N[C@@H](Cc2ccccc2)C(=O)N1)C(=O)N[C@@H](Cc1c[nH]c2ccccc12)C(=O)NCc1cc(C(F)(F)F)cc(C(F)(F)F)c1 [TY037, [D-Cys^2, D-Cys^5]TY027]"
value_observed = "8.3 nM"


Value (IC50, δ opioid receptors (MVD) (Mus musculus, UniProt P32300)) for record CC(C)C[C@H](NC(=O)[C@@H]1CCCN1C(=O)[C@H](CC[S+](C)[O-])NC(=O)[C@H](Cc1ccccc1)NC(=O)CNC(=O)[C@@H](C)NC(=O)[C@@H](N)Cc1ccc(O)cc1)C(=O)N[C@@H](Cc1c[nH]c2ccccc12)C(=O)OCc1cc(C(F)(F)F)cc(C(F)(F)F)c1 (stereo partly shown) [TY023] = 33 nM

---

Examples of compounds with documented pEC50 follow.
- assayed system: human δ opioid receptors (hDOR) (Homo sapiens, UniProt P41143)
- Construct: expressed in transfected cells; host or cells: HN9.10 neuroblastoma cell line, pCDNA3, neomycin-selected clones
- protocol notes: [35S]GTP-γ-S binding assay, hDOR
- Assay type: biochemical
- assay conditions: read-out: EC50, hDOR, [35S]GTP-γ-S binding
Peptide text beside a SMILES is read from it.
// pEC50 is dimensionless: -log10 of concentration (M)

// sample CC(C)C[C@H](NC(=O)[C@@H]1CCCN1C(=O)[C@H](CC(C)C)NC(=O)[C@H](Cc1ccccc1)NC(=O)CNC(=O)[C@@H](C)NC(=O)[C@@H](N)Cc1ccc(O)cc1)C(=O)N[C@@H](Cc1c[nH]c2ccccc12)C(=O)OCc1cc(C(F)(F)F)cc(C(F)(F)F)c1 [TY004] , its pEC50 was 8.02

// sample CC(C)C[C@H](NC(=O)[C@@H]1CCCN1C(=O)CNC(=O)[C@H](Cc1ccccc1)NC(=O)CNC(=O)[C@@H](C)NC(=O)[C@@H](N)Cc1ccc(O)cc1)C(=O)N[C@@H](Cc1c[nH]c2ccccc12)C(=O)OCc1cc(C(F)(F)F)cc(C(F)(F)F)c1 [TY006] (HELM PEPTIDE1{Y.[dA].G.F.G.P.L.W.[FC(F)(F)c1cc(CO[*:1])cc(C(F)(F)F)c1]}$$$$V2.0) , its pEC50 was 7.30

// sample CC(C)C[C@H](NC(=O)[C@@H]1CCCN1C(=O)[C@H](CC[S+](C)[O-])NC(=O)[C@H](Cc1ccccc1)NC(=O)CNC(=O)[C@@H](C)NC(=O)[C@@H](N)Cc1ccc(O)cc1)C(=O)N[C@@H](Cc1c[nH]c2ccccc12)C(=O)OCc1cc(C(F)(F)F)cc(C(F)(F)F)c1 (stereo partly drawn) [TY023] , its pEC50 was 8.74
